- System: biotinyl-Met-oxazolone
- procedure.details: self-aminoacylation, catalytic enhancement (BMO) (fold over background); higher = more active; k-Seq, kA / k0A0; sequences stand for … in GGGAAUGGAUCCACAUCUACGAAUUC…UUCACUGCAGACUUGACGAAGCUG
This sample holds only a part of the variants without activity.
Entries and their measured self-aminoacylation follow.
value.kind: self-aminoacylation

{"chain.sequence": "AAGUUUGCUAAUUGUCUCAAG [Fam3.1 aminoacylation ribozyme variant]", "recorded.number": 0.943}
{"chain.sequence": "AUUGACCUAGAUCAUCGGGUG [Fam2.2 aminoacylation ribozyme variant]", "recorded.number": 3.5}
{"chain.sequence": "AAGCUUGCUAAUAGGCGCAAG [Fam3.1 aminoacylation ribozyme variant]", "recorded.number": 1.12}
{"chain.sequence": "CUACUUCAAACUAUCGGUCUA [Fam1A.1 aminoacylation ribozyme variant]", "recorded.number": 0.729}
{"chain.sequence": "AUCACCCUGGUCAUCGAGUGA [Fam2.1 aminoacylation ribozyme variant]", "recorded.number": 27.8}
{"chain.sequence": "AUUACCCUGGUCAUCUAGUGA [Fam2.1 aminoacylation ribozyme variant]", "recorded.number": 9.61}
{"chain.sequence": "AAGUUUGCUAAUAUUCGCGAG [Fam3.1 aminoacylation ribozyme variant]", "recorded.number": 2.02}
{"chain.sequence": "AAGUUAGCUAAUAGUCUCAAG [Fam3.1 aminoacylation ribozyme variant]", "recorded.number": 1.22}
{"chain.sequence": "CCACUUCAAACAAUCGGUCUA [Fam1A.1 aminoacylation ribozyme variant]", "recorded.number": 0.991}
{"chain.sequence": "GCACACUUCAAUCAAUCGGUC [Fam1B.1 aminoacylation ribozyme variant]", "recorded.number": 1.58}
{"chain.sequence": "CUCCUCCAAACAAUCGGUCUG [Fam1A.1 aminoacylation ribozyme variant]", "recorded.number": 0.973}
{"chain.sequence": "CUACUUCAAACCGUCGGUCUG [Fam1A.1 aminoacylation ribozyme variant]", "recorded.number": 0.847}
{"chain.sequence": "CAGUUUGCUAAUAGUCGCACG [Fam3.1 aminoacylation ribozyme variant]", "recorded.number": 1.1}
{"chain.sequence": "AGUCACCUAGGUCAUCGAGUG [Fam2.2 aminoacylation ribozyme variant]", "recorded.number": 4.24}
{"chain.sequence": "AUUACCCUGAUCAUCUAGUGA [Fam2.1 aminoacylation ribozyme variant]", "recorded.number": 13.5}
{"chain.sequence": "AUACACCUAGGUCAUCGGGCG [Fam2.2 aminoacylation ribozyme variant]", "recorded.number": 2.8}
{"chain.sequence": "CUUCUUCAAACAAUCGGUCAG [Fam1A.1 aminoacylation ribozyme variant]", "recorded.number": 0.655}
{"chain.sequence": "AUGCACCUAGGUCCUCGGGUG [Fam2.2 aminoacylation ribozyme variant]", "recorded.number": 3.7}
